# Procedure Details: Inhibition of HIV-1 gp120/CD4 interaction
Measurement Name: EC50 (nM)
State the answer as a number, implicitly in nM.

Measured EC50, C[C@@H]1CN(C(=O)c2ccccc2)CCN1C(=O)C(=O)c1c[nH]c2ccccc12 : 4
